targetOrSystem: COX-2 (Homo sapiens, UniProt P35354)
Construct: endogenous in cells; host or cells: fresh heparinized human whole blood from volunteers, LPS-stimulated
Sequence (P35354 18-604): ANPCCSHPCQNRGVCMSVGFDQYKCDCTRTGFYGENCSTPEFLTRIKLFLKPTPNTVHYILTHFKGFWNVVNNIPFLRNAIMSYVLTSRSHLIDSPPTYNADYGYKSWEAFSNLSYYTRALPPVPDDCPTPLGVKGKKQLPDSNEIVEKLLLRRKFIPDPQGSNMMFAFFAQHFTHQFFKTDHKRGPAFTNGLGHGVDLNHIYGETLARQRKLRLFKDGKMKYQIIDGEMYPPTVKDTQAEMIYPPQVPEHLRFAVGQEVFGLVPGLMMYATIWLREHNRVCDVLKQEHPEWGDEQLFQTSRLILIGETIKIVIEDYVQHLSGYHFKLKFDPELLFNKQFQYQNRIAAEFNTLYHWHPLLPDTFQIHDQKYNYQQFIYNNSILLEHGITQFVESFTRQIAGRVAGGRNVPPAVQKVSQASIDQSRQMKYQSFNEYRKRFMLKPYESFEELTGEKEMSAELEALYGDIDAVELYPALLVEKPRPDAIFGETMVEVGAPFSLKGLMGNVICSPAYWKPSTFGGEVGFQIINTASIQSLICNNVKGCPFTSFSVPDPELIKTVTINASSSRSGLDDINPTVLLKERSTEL
experimentalProtocol: Human whole blood assay, COX-2 (LPS-induced PGE2 production)
Assay type: cell-based
protocolConditions: LPS-induced PGE2, 24 hours at 37°C
assayMetric: IC50
Hey, just the number and the unit after it is fine.

smilesRepresentation: CS(=O)(=O)c1ccc(C2=C(c3cc(F)cc(F)c3)C(=O)CC2)cc1
IC50: 450 nM

Now consider a different molecule.
Would you mind telling me what IC50 value was observed for CS(=O)(=O)c1ccc(C2=C(c3ccc(F)cc3)C(=O)CC2)cc1 ?
120 nM
